Some molecules, each annotated with its measured IC50.
System: HT-29
PROTOCOL DESCRIPTION: Cytotoxicity against human HT-29 cells assessed as reduction in cell viability after 72 hrs by MTT assay
Assay type: functional, cell-based
PARTICULARS: HT-29, 72 h
Give the value in µM but do not write µM after it.

stdin: Complete the entry with IC50 for CC(C)(C)COC1OC(=O)C(Cl)=C1Cl (stereo not drawn)
stdout: 7.2

stdin: Given the molecule O=C1OC(O)C(Cl)=C1Cl (stereo not drawn) , write its reported IC50.
stdout: 21.8

stdin: Tell us which IC50 value is on record for CC(C)OC1OC(=O)C(Cl)=C1Cl (stereo not drawn)
stdout: 7.2

* * *

Test system: HCT-116
PROTOCOL DESCRIPTION: Cytotoxicity against human HCT116 cells assessed as reduction in cell viability after 72 hrs by MTT assay
Type: functional, cell-based
PARTICULARS: HCT-116, 72 h
MEASUREMENT KIND: pIC50
Remember the convention: pIC50 equals -log10 of concentration in molar.

COMPOUND: O=C1OC(O)C(Cl)=C1Cl (stereo not drawn) [MUCOCHLORIC ACID]
ENDPOINT VALUE: 5.08

stdin: Provide measured pIC50 on HCT-116 for CC(C)(C)COC1OC(=O)C(Cl)=C1Cl (stereo not drawn) please.
stdout: 5.14

stdin: Check HCT-116 data and give pIC50 for CC(C)OC1OC(=O)C(Cl)=C1Cl (stereo not drawn) .
stdout: 5.14
